# Test system: Enterococcus faecalis
# assay_method_text: Antibacterial activity against Enterococcus faecalis assessed as inhibition of bacterial growth by micro-broth dilution assay
# Assay type: functional
Measured MIC accompanies every entry in the list below.
Answer format reminder: number followed by unit.

Field: example entries. Status: answers known.
{"columns": ["compound", "test_target", "MIC"],
 "data": [
  ["O=C1/C(=N\\Nc2ccc(Cl)cc2)c2ccccc2N1CC(O)CSc1nc[nH]n1 (stereo not given)", "Enterococcus faecalis", "4 µg/mL"],
  ["O=C1C(=O)N(CC(O)CSc2nc[nH]n2)c2ccccc21 (stereo not given)", "Enterococcus faecalis", "64 µg/mL"],
  ["O=C1/C(=N\\Nc2ccccc2)c2ccccc2N1CC(O)CSc1nc[nH]n1 (stereo not given)", "Enterococcus faecalis", "32 µg/mL"],
  ["CCn1cc(C(=O)O)c(=O)c2cc(F)c(N3CCNCC3)cc21 [NORFLOXACIN]", "Enterococcus faecalis", "4 µg/mL"]
]}

We now examine a further compound.
Identify measured MIC corresponding to O=C(O)c1ccc(N/N=C2\C(=O)N(CC(O)CSc3nc[nH]n3)c3ccccc32)cc1 (stereo not given)
2 µg/mL

###

# System: Escherichia coli
# assay_method_text: Antibacterial activity against Escherichia coli ATCC 25922 assessed as inhibition of bacterial growth by micro-broth dilution assay
# Assay type: functional
Measured MIC accompanies every entry in the list below.
Respond with the bare value in µg/mL.

Identify measured MIC corresponding to Cn1ccnc1SCC(O)CN1C(=O)/C(=N\Nc2ccc(C(=O)O)cc2)c2ccccc21 (stereo not given)
4

Identify measured MIC corresponding to O=C1/C(=N\Nc2ccc([N+](=O)[O-])cc2)c2ccccc2N1CC(O)CSc1nc[nH]n1 (stereo not given)
128

Identify measured MIC corresponding to Cc1ccc(N/N=C2\C(=O)N(CC(O)CSc3nc[nH]n3)c3ccccc32)cc1 (stereo not given)
32

Identify measured MIC corresponding to O=C1/C(=N\Nc2ccc(Cl)cc2)c2ccccc2N1CC(O)CSc1nc[nH]n1 (stereo not given)
8

Identify measured MIC corresponding to Cn1nnnc1SCC(O)CN1C(=O)/C(=N\Nc2ccc(C(=O)O)cc2)c2ccccc21 (stereo not given)
16

Identify measured MIC corresponding to Cn1ccnc1SCC(O)CN1C(=O)C(=O)c2ccccc21 (stereo not given)
64

Identify measured MIC corresponding to Cn1ccnc1SCC(O)CN1C(=O)/C(=N\Nc2ccc(Cl)cc2)c2ccccc21 (stereo not given)
128

Identify measured MIC corresponding to Cc1ccc(N/N=C2\C(=O)N(CC(O)CSc3nccn3C)c3ccccc32)cc1 (stereo not given)
128

Identify measured MIC corresponding to O=C(O)c1ccc(N/N=C2\C(=O)N(CC(O)CSc3nc[nH]n3)c3ccccc32)cc1 (stereo not given)
32

Identify measured MIC corresponding to Cn1ccnc1SCC(O)CN1C(=O)/C(=N\Nc2ccccc2)c2ccccc21 (stereo not given)
128
